Measured values drawn from ChEMBL document CHEMBL1137547 for this set.

# Test system: Fonsecaea compacta
# Protocol notes: Antifungal activity against Fonsecaea compacta
# Format: functional
Quantity name: MIC

Molecule	Measured target	Quantity name	Measured
CCCCCCCCCCCCCCCCCCNC1CCc2ccc(OC)cc2C1 (centres undefined)	Fonsecaea compacta	MIC	> 64 µM
CCCCCCCCNC1CCc2ccc(O)cc2C1 (centres undefined)	Fonsecaea compacta	MIC	8 µM
Oc1cccc2c1CCC(NCc1ccccc1)C2 (centres undefined)	Fonsecaea compacta	MIC	> 64 µM
CCCCCCCCNC1CCc2c(O)cccc2C1 (centres undefined)	Fonsecaea compacta	MIC	8 µM
CCCCCCCCCNC1CCc2cccc(OC)c2C1 (centres undefined)	Fonsecaea compacta	MIC	2 µM
CCCCCCCCCCNC1CCc2c(O)cccc2C1 (centres undefined)	Fonsecaea compacta	MIC	1 µM
CCCCNC1CCc2cc(O)ccc2C1 (centres undefined)	Fonsecaea compacta	MIC	> 64 µM
CCCCCCCCCCCCCCNC1CCc2cc(OC)ccc2C1 (centres undefined)	Fonsecaea compacta	MIC	> 64 µM
CCCCCCCCCCNC1CCc2cccc(OC)c2C1 (centres undefined)	Fonsecaea compacta	MIC	1 µM
CCCCCCCCCCCCCCCCCCNC1CCc2c(cccc2OC)C1 (centres undefined)	Fonsecaea compacta	MIC	64 µM
CCCCCCCCCCCCCCCCCCNC1CCc2cc(OC)ccc2C1 (centres undefined)	Fonsecaea compacta	MIC	> 64 µM
CCCCCCCCCNC1CCc2cc(O)ccc2C1 (centres undefined)	Fonsecaea compacta	MIC	1 µM
Oc1ccc2c(c1)CC(NCc1ccccc1)CC2 (centres undefined)	Fonsecaea compacta	MIC	> 64 µM
CCCCCCCCCNC1CCc2c(cccc2OC)C1 (centres undefined)	Fonsecaea compacta	MIC	0.5 µM
NC1CCc2cc(O)ccc2C1 (centres undefined)	Fonsecaea compacta	MIC	32 µM
CCCCCCCCNC1CCc2ccc(OC)cc2C1 (centres undefined)	Fonsecaea compacta	MIC	4 µM
COc1ccc2c(c1)CCC(Nc1ccccc1)C2 (centres undefined)	Fonsecaea compacta	MIC	> 64 µM
CCCCCCCCCCCCCCCCCCNC1CCc2ccc(O)cc2C1 (centres undefined)	Fonsecaea compacta	MIC	64 µM
Oc1cccc2c1CCC(Nc1ccc(Cl)cc1)C2 (centres undefined)	Fonsecaea compacta	MIC	16 µM
Oc1cccc2c1CCC(Nc1ccccc1)C2 (centres undefined)	Fonsecaea compacta	MIC	> 64 µM
COc1ccc(NC2CCc3cccc(O)c3C2)cc1 (centres undefined)	Fonsecaea compacta	MIC	> 64 µM
COc1cccc2c1CC(Nc1ccc(Cl)cc1)CC2 (centres undefined)	Fonsecaea compacta	MIC	> 64 µM
NC1CCc2ccc(O)cc2C1 (centres undefined)	Fonsecaea compacta	MIC	32 µM
CCCCCCCCCCNC1CCc2ccc(OC)cc2C1 (centres undefined)	Fonsecaea compacta	MIC	1 µM
CCCCNC1CCc2c(O)cccc2C1 (centres undefined)	Fonsecaea compacta	MIC	64 µM
CCCCCCCCNC1CCc2cccc(OC)c2C1 (centres undefined)	Fonsecaea compacta	MIC	8 µM
CCCCNC1CCc2c(cccc2OC)C1 (centres undefined)	Fonsecaea compacta	MIC	> 64 µM
CCCCCCCCCCCCCCNC1CCc2cccc(O)c2C1 (centres undefined)	Fonsecaea compacta	MIC	16 µM
CCCCCCCCCCCCCCNC1CCc2cccc(OC)c2C1 (centres undefined)	Fonsecaea compacta	MIC	32 µM

---

# System: Fonsecaea compacta
# Protocol notes: Antifungal activity against Fonsecaea compacta
# Format: functional
Each record here notes measured MIC.
Quantity name: MIC

Compound	Quantity name	Measured
CCCCCCCCCCCCCCNC1CCc2cc(O)ccc2C1 (centres undefined)	MIC	> 64 µM
COc1ccc2c(c1)CC(N)CC2 (centres undefined)	MIC	> 64 µM
COc1ccc2c(c1)CCC(Nc1ccc(Cl)cc1)C2 (centres undefined)	MIC	> 64 µM
CCCCCCCCNC1CCc2cccc(O)c2C1 (centres undefined)	MIC	4 µM
Oc1ccc2c(c1)CCC(NCc1ccccc1)C2 (centres undefined)	MIC	> 64 µM
COc1ccc(NC2CCc3c(cccc3OC)C2)cc1 (centres undefined)	MIC	> 64 µM
CCCCCCCCCCCCCCNC1CCc2c(cccc2OC)C1 (centres undefined)	MIC	64 µM
CCCCNC1CCc2ccc(O)cc2C1 (centres undefined)	MIC	64 µM
Oc1ccc2c(c1)CCC(Nc1ccc(Cl)cc1)C2 (centres undefined)	MIC	32 µM
COc1ccc(NC2CCc3cccc(OC)c3C2)cc1 (centres undefined)	MIC	> 64 µM
CCCCCCCCCCCCCCCCCCNC1CCc2cccc(OC)c2C1 (centres undefined)	MIC	> 64 µM
CCCCCCCCCCCCCCCCCCNC1CCc2cccc(O)c2C1 (centres undefined)	MIC	64 µM
CCCCCCCCNC1CCc2c(cccc2OC)C1 (centres undefined)	MIC	4 µM
CCCCCCCCCNC1CCc2cccc(O)c2C1 (centres undefined)	MIC	4 µM
CCCCCCCCCCCCNC1CCc2ccc(O)cc2C1 (centres undefined)	MIC	32 µM
CCCCCCCCCCCCCCNC1CCc2ccc(O)cc2C1 (centres undefined)	MIC	8 µM
COc1ccc2c(c1)CCC(N)C2 (centres undefined)	MIC	> 64 µM
Oc1ccc2c(c1)CC(Nc1ccccc1)CC2 (centres undefined)	MIC	32 µM
CCCCCCCCCCNC1CCc2ccc(O)cc2C1 (centres undefined)	MIC	2 µM
